# experimental_protocol: Pharmacokinetics of R14 in rats after i.v. and oral dose
# Assay type: in vivo, Sprague Dawley rats
# setup_conditions: male, Sprague Dawley, rat, plasma, oral, 50 mg/kg, oral 50 mg/kg vs i.v. 5 mg/kg, rats; read-out: F% (absolute oral bioavailability)
observed_property: bioavailability (%)
# unit: % | format: bare number

Any idea what bioavailability was measured for Cc1ccccc1-n1sc2cc(F)ccc2c1=O [Metabolite R14] ? 13.4

====

# experimental_protocol: Pharmacokinetics of R14 in rats after i.v. and oral dose
# Assay type: in vivo, Sprague Dawley rats
# setup_conditions: male, Sprague Dawley; oral 50 mg/kg, rat plasma, n = 3, mean ± SD
observed_property: Cmax (ng/mL)
# unit: ng/mL | format: bare number

Any idea what Cmax was measured for Cc1ccccc1-n1sc2cc(F)ccc2c1=O [Metabolite R14] ? 1150

====

# experimental_protocol: R14 permeability in the Caco-2 cell culture model
# Type: in vitro ADME
# setup_conditions: human, Caco-2; R14 10 µM, n = 3; read-out: Pb−a (basolateral-to-apical permeability)
observed_property: Papp B→A at 4 h, 10 µM (×10⁻⁶ cm/s)
# unit: ×10⁻⁶ cm/s | format: bare number

Any idea what Papp B→A at 4 h, 10 µM was measured for Cc1ccccc1-n1sc2cc(F)ccc2c1=O [Metabolite R14] ? 6.41

====

# experimental_protocol: Pharmacokinetics of R14 in rats after i.v. and oral dose
# Assay type: in vivo, Sprague Dawley rats
# setup_conditions: male, Sprague Dawley; oral 50 mg/kg, rat plasma, n = 3, mean ± SD
observed_property: AUC(0-inf) (ng·h/mL)
# unit: ng·h/mL | format: bare number

Any idea what AUC(0-inf) was measured for Cc1ccccc1-n1sc2cc(F)ccc2c1=O [Metabolite R14] ? 2430

====

# experimental_protocol: Pharmacokinetics of R14 in rats after i.v. and oral dose
# Type: in vivo, Sprague Dawley rats
# setup_conditions: male, Sprague Dawley, iv; i.v. 5 mg/kg, rat plasma, n = 3, mean ± SD; read-out: AUC0→10h
observed_property: AUC(0-t) (µg·h/mL)
# unit: µg·h/mL | format: bare number

Any idea what AUC(0-t) was measured for Cc1ccccc1-n1sc2cc(F)ccc2c1=O [Metabolite R14] ? 1.58

====

# experimental_protocol: Pharmacokinetics of R14 in rats after i.v. and oral dose
# Format: in vivo, Sprague Dawley rats
# setup_conditions: male, Sprague Dawley, rat, plasma; oral 50 mg/kg, rats, n = 3, mean ± SD; read-out: Vd/F (apparent volume of distribution)
observed_property: Vd/F (L/kg)
# unit: L/kg | format: bare number

Any idea what Vd/F was measured for Cc1ccccc1-n1sc2cc(F)ccc2c1=O [Metabolite R14] ? 93.3

====

# experimental_protocol: R14 permeability in the Caco-2 cell culture model
# Format: in vitro ADME
# setup_conditions: human, Caco-2; R14 10 µM, n = 3; read-out: Pa−b (apical-to-basolateral permeability)
observed_property: Papp A→B at 4 h, 10 µM (×10⁻⁶ cm/s)
# unit: ×10⁻⁶ cm/s | format: bare number

Any idea what Papp A→B at 4 h, 10 µM was measured for Cc1ccccc1-n1sc2cc(F)ccc2c1=O [Metabolite R14] ? 6.39

====

# experimental_protocol: R14 permeability in the Caco-2 cell culture model
# Assay type: in vitro ADME
# setup_conditions: human, Caco-2; R14 10 µM; read-out: Efflux ratio (Pb−a/Pa−b)
observed_property: efflux ratio at 4 h, 10 µM
Provide a numeric answer; units are not to be included.

Any idea what efflux ratio at 4 h, 10 µM was measured for Cc1ccccc1-n1sc2cc(F)ccc2c1=O [Metabolite R14] ? 1.12

The values you see were collected from paper PMC12389022.
